The reported measurements were obtained from ChEMBL document CHEMBL4689842.

# Tested on: HEK-293T
# Protocol summary: Multiplex assay against HEK293T
# Format: toxicity, cell-based
# Conditions: human, 12 h, 1 µM, compound concentration 1 uM, replicate 1
Reported Population Apoptotic (%) by item:
Readout kind: Population Apoptotic (%)

{"Sample smiles": "Oc1cccc(-c2nc(N3CCOCC3)c3oc4ncccc4c3n2)c1", "Readout kind": "Population Apoptotic (%)", "Result": 58}
{"Sample smiles": "N#CCNC(=O)c1ccc(-c2ccnc(Nc3ccc(N4CCOCC4)cc3)n2)cc1", "Readout kind": "Population Apoptotic (%)", "Result": 35}
{"Sample smiles": "CCOc1ccn(-c2ccc(F)cc2)c(=O)c1C(=O)Nc1ccc(Oc2ccnc(N)c2Cl)c(F)c1", "Readout kind": "Population Apoptotic (%)", "Result": 25}
{"Sample smiles": "Cc1ccc(S(=O)(=O)NC2c3ccccc3Oc3ccccc32)cc1", "Readout kind": "Population Apoptotic (%)", "Result": 46}
{"Sample smiles": "CC[C@@H]1C(=O)N(C)c2cnc(Nc3ccc(C(=O)NC4CCN(C)CC4)cc3OC)nc2N1C1CCCC1", "Readout kind": "Population Apoptotic (%)", "Result": 15}
{"Sample smiles": "CC[C@H](Nc1ncnc2[nH]cnc12)c1nc2cccc(F)c2c(=O)n1-c1ccccc1", "Readout kind": "Population Apoptotic (%)", "Result": 22}
{"Sample smiles": "NC(=O)c1ccc2nc(-c3ccc(C4(N)CCC4)cc3)c(-c3ccccc3)n2n1", "Readout kind": "Population Apoptotic (%)", "Result": 22}
{"Sample smiles": "Cc1c(P(=S)(c2ccccc2)c2ccccc2)n2ccccc2[n+]1C/C=C/c1ccccc1.[Br-]", "Readout kind": "Population Apoptotic (%)", "Result": 65}

====

# Tested on: Fibroblast
# Protocol summary: Multiplex assay against human fibroblast
# Assay type: toxicity, cell-based
# Conditions: 24 h, 1 µM, compound concentration 1 uM, replicate 1
Readout kind: Population Normal (%)

{"Sample smiles": "CCCCN(CC)c1nc(C)nc2c1c(C)cn2-c1c(C)cc(C)cc1C.Cl", "Result": 88}
{"Sample smiles": "CCOc1ccn(-c2ccc(F)cc2)c(=O)c1C(=O)Nc1ccc(Oc2ccnc(N)c2Cl)c(F)c1", "Result": 88}
{"Sample smiles": "C=CC(=O)Nc1cc(-n2c(=O)ccc3cnc4ccc(-c5ccc(NS(C)(=O)=O)cc5)cc4c32)ccc1C", "Result": 88}
{"Sample smiles": "Cc1c(Nc2ccc(S(=O)(=O)N3CCN(C)CC3)cc2F)nc2ccc(Nc3cnn(C4CC4)c3)cn2c1=O", "Result": 87}
{"Sample smiles": "CC(/C=C1\\SC(=S)N(CCCC(=O)Nc2ccc(C(=O)O)c(O)c2)C1=O)=C\\c1ccccc1", "Result": 92}
{"Sample smiles": "CC[C@@H]1C(=O)N(C)c2cnc(Nc3ccc(C(=O)NC4CCN(C)CC4)cc3OC)nc2N1C1CCCC1", "Result": 81}
{"Sample smiles": "Oc1cccc(-c2nc(N3CCOCC3)c3oc4ncccc4c3n2)c1", "Result": 85}
{"Sample smiles": "CC(C)c1cc(Nc2nc(N3CCC[C@H](N)C3)ncc2C(N)=O)cc(C(C)C)n1", "Result": 74}
{"Sample smiles": "CC(C)[C@H](CO)Nc1nc(Nc2cccc(Cl)c2)c2ncn(C(C)C)c2n1", "Result": 81}

====

# Tested on: Fibroblast
# Protocol summary: Multiplex assay against human fibroblast
# Type: toxicity, cell-based
# Conditions: 24 h, 10 µM, compound concentration 10 uM, replicate 2
Readout kind: Population Mitochondria Different-Phenotype (%)

{"Sample smiles": "CN(c1cc(C(F)(F)F)nc(OCCC(=O)O)n1)c1cccc2c1CCC2", "Tgt": "Fibroblast", "Result": 13}
{"Sample smiles": "CC(C)[C@H](CO)Nc1nc(Nc2cccc(Cl)c2)c2ncn(C(C)C)c2n1", "Tgt": "Fibroblast", "Result": 100}
{"Sample smiles": "Cc1c(Nc2ccc(S(=O)(=O)N3CCN(C)CC3)cc2F)nc2ccc(Nc3cnn(C4CC4)c3)cn2c1=O", "Tgt": "Fibroblast", "Result": 4}
{"Sample smiles": "CCCc1cc(C)[nH]c(=O)c1CNC(=O)c1cc(-c2ccc(N3CCN(C(C)C)CC3)nc2)cc2c1cnn2C(C)C", "Tgt": "Fibroblast", "Result": 100}

====

# Tested on: HEK-293T
# Protocol summary: Multiplex assay against HEK293T
# Format: toxicity, cell-based
# Conditions: human, 12 h, 10 µM, compound concentration 10 uM, replicate 2
Reported Population Healthy Nuclei (%) values are given for each entry in this list.

{"Molecule": "CC[C@H](Nc1ncnc2[nH]cnc12)c1nc2cccc(F)c2c(=O)n1-c1ccccc1", "Unit label": "%", "Population Healthy Nuclei (%)": 86}
{"Molecule": "CC(/C=C1\\SC(=S)N(CCCC(=O)Nc2ccc(C(=O)O)c(O)c2)C1=O)=C\\c1ccccc1", "Unit label": "%", "Population Healthy Nuclei (%)": 50}
{"Molecule": "CC(Cc1ccc(O)c(O)c1)C(C)Cc1ccc(O)c(O)c1 (centres undefined) [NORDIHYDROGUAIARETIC ACID]", "Unit label": "%", "Population Healthy Nuclei (%)": 55}
{"Molecule": "CC(C)[C@H](CO)Nc1nc(Nc2cccc(Cl)c2)c2ncn(C(C)C)c2n1", "Unit label": "%", "Population Healthy Nuclei (%)": 18}
{"Molecule": "N#Cc1cccc(C(=O)Nc2cc(-c3ccccc3)nn2-c2ccccc2)c1", "Unit label": "%", "Population Healthy Nuclei (%)": 25}
{"Molecule": "CC[C@@]1(O)C(=O)OCc2c1cc1n(c2=O)Cc2cc3ccccc3nc2-1", "Unit label": "%", "Population Healthy Nuclei (%)": 93}
{"Molecule": "NC(=O)c1ccc2nc(-c3ccc(C4(N)CCC4)cc3)c(-c3ccccc3)n2n1", "Unit label": "%", "Population Healthy Nuclei (%)": 87}
{"Molecule": "N#CCNC(=O)c1ccc(-c2ccnc(Nc3ccc(N4CCOCC4)cc3)n2)cc1", "Unit label": "%", "Population Healthy Nuclei (%)": 29}
{"Molecule": "CC(C)c1cc(Nc2nc(N3CCC[C@H](N)C3)ncc2C(N)=O)cc(C(C)C)n1", "Unit label": "%", "Population Healthy Nuclei (%)": 5}

====

# Tested on: Fibroblast
# Protocol summary: Multiplex assay against human fibroblast
# Format: toxicity, cell-based
# Conditions: 12 h, 10 µM, compound concentration 10 uM, replicate 2

{"Compound": "CN(c1cc(C(F)(F)F)nc(OCCC(=O)O)n1)c1cccc2c1CCC2", "Total Cell Count": 71}
{"Compound": "Cl.NC[C@@H]1O[C@H](C23CC4CC(CC(C4)C2)C3)Cc2c1ccc(O)c2O", "Total Cell Count": 76}
{"Compound": "CC(C)C[C@H](NC(=O)[C@H](Cc1ccccc1)NC(=O)CNC(=O)CNC(=O)[C@@H](N)Cc1ccc(O)cc1)C(=O)O [ENKEPHALIN]", "Total Cell Count": 62}
{"Compound": "CCCCCNC(=N)N/N=C/c1c[nH]c2ccc(OC)cc12.O=C(O)/C=C\\C(=O)O [TEGASEROD MALEATE]", "Total Cell Count": 64}
{"Compound": "Cl.Cn1c2c(c3ccc(Cl)c(Cl)c31)C(C#N)C1(CCNCC1)NC2=O (centres undefined)", "Total Cell Count": 112}
{"Compound": "NC(=O)c1ccc2nc(-c3ccc(C4(N)CCC4)cc3)c(-c3ccccc3)n2n1 [BAY-1125976]", "Total Cell Count": 84}
{"Compound": "CCOc1ccn(-c2ccc(F)cc2)c(=O)c1C(=O)Nc1ccc(Oc2ccnc(N)c2Cl)c(F)c1 [BMS-777607]", "Total Cell Count": 92}
{"Compound": "CCCCN(CC)c1nc(C)nc2c1c(C)cn2-c1c(C)cc(C)cc1C.Cl", "Total Cell Count": 78}
{"Compound": "CC(C)c1cc(Nc2nc(N3CCC[C@H](N)C3)ncc2C(N)=O)cc(C(C)C)n1", "Total Cell Count": 55}

====

# Test system: Fibroblast
# Protocol summary: Incucyte cell viability with human fibroblast; further: filed as whole numbers so only -1 and 0 and 1 occur
# Format: toxicity, cell-based
# Conditions: 12 h, 10 µM, compound concentration 10 uM, replicate number 2, timepoint 12 hours

{"Compound": "CCCOc1ccn2c(C(C)=O)cc(-c3cccc(OC)c3)c2c1", "Growth Rate": 1}
{"Compound": "CCN(Cc1ccc(Cl)cc1)c1ncc(C(=O)NCCCN2CCCC2=O)c(NC2CCCC2)n1", "Growth Rate": 0}
{"Compound": "CC(C)c1ccc(CC(=O)N2CCC[C@@H](c3cccc(OC(C)(C)C(=O)O)c3)C2)cc1", "Growth Rate": 0}
{"Compound": "CCCCN(Cc1ccccc1)C(=O)c1ccc(S(=O)(=O)Nc2ccccc2)cc1", "Growth Rate": 0}
{"Compound": "C=CC(=O)Nc1cc(-n2c(=O)ccc3cnc4ccc(-c5ccc(NS(C)(=O)=O)cc5)cc4c32)ccc1C", "Growth Rate": 0}
{"Compound": "CNC(=O)Nc1ccc2c(c1)CC[C@@]21OC(=O)N(CC(=O)N(Cc2ccc(F)cc2)[C@@H](C)C(F)(F)F)C1=O [A-485]", "Growth Rate": 1}
{"Compound": "CC[C@@H]1C(=O)N(C)c2cnc(Nc3ccc(C(=O)N[C@H]4CC[C@H](N5CCN(CC6CC6)CC5)CC4)cc3OC)nc2N1C(C)C [VOLASERTIB]", "Growth Rate": 1}
{"Compound": "CC(C)C[C@H](NC(=O)N1CCCCCC1)C(=O)N[C@H](Cc1cn(C)c2ccccc12)C(=O)N[C@H](Cc1ccccn1)C(=O)O", "Growth Rate": 0}
{"Compound": "NS(=O)(=O)c1cc(NC(=O)Cc2ccccc2)ccc1Oc1cccc(Cl)c1 [BAY-1797]", "Growth Rate": 1}
{"Compound": "CCCc1cc(C)[nH]c(=O)c1CNC(=O)c1cc(-c2ccc(N3CCN(C(C)C)CC3)nc2)cc2c1cnn2C(C)C", "Growth Rate": 1}
{"Compound": "COc1cc(N2CCC(O)CC2)ccc1Nc1cc(Nc2ccccc2S(=O)(=O)C(C)C)c2cc[nH]c2n1", "Growth Rate": 1}
{"Compound": "CN1CCN(c2ccc(-c3cccc(CN4CCOCC4)c3)cc2NC(=O)c2c[nH]c(=O)cc2C(F)(F)F)CC1", "Growth Rate": 0}
{"Compound": "CCN1CCC[C@H]1CNC(=O)c1c(OC)ccc(Br)c1OC [REMOXIPRIDE]", "Growth Rate": 0}
{"Compound": "CC(C)(Cc1ccccc1)NCC(O)c1ccc(O)c(NS(C)(=O)=O)c1.Cl (stereo unspecified) [ZINTEROL HYDROCHLORIDE]", "Growth Rate": 1}
{"Compound": "Cn1cc(Cl)c2c(Oc3c(F)cc(Nc4cc(Cl)nc(N)n4)cc3F)ccnc21 [BAY-4900]", "Growth Rate": 1}
{"Compound": "CC(C)(N)C(=O)N[C@H](COCc1ccccc1)C(=O)N1CCC2(CC1)CN(S(C)(=O)=O)c1ccccc12.CS(=O)(=O)O [IBUTAMOREN MESYLATE]", "Growth Rate": 1}
